# Measurement target: T1, human GIP receptor (human) (UniProt P48546)
# T1 sequence (looked up): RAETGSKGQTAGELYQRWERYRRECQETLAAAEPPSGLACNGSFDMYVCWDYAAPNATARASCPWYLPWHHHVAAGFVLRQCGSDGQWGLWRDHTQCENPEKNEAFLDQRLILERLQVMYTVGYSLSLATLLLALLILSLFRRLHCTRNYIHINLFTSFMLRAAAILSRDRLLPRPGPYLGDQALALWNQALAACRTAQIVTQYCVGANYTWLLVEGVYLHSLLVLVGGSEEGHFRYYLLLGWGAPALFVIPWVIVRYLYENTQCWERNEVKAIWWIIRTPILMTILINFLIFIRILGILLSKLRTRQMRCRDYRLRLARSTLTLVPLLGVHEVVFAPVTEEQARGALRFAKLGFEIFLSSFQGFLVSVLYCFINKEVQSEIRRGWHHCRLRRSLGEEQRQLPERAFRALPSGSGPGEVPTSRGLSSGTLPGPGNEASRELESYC
# Protocol description: cell-based or functional assay
// NB: equality with 0.05 nM counts as false (0); only Relative cAMP EC50 strictly below is true (1)

Binder: YXQGTFTSDXSXXLDXKAQXAFIEXLLEGGPSSGAPPPSGSEE (non-natural residues; lysine acylated with C18 diacid; C-terminal amide; synthetic construct; SITE 2: note = 2-Aminoisobutyric Acid; SITE 10: note = 3-(4-Pyridyl)-L-alanine; SITE 12: note = L-ornithine; SITE 13: note = alpha-methyl-leucine; SITE 16: note = L-ornithine; SITE 17: note = Lysine is chemically modified through conjugation of the epsilon-amino group of the Lys) [Example 1067]
Class: false (0)
--
Binder: YXQGTFTSDXSQXLDXKAQXAFIEYLIAGGPSSGEPPPSGS (not fully specified; synthetic construct; SITE 2: note = 2-Aminoisobutyric Acid; SITE 10: note = 3-(4-Pyridyl)-L-alanine; SITE 13: note = alpha-methyl-leucine; SITE 16: note = L-ornithine; SITE 17: note = Lysine is chemically modified through conjugation of the epsilon-amino group of the Lysine side chain with (gamma-Gl)) [Example 1007]
Class: false (0)
--
Binder: YXQGTXTSDXXIXLDXKAQXNFIEXLQEGGPSSGEPPPEGTE (synthetic construct; SITE 2: note = 2-Aminoisobutyric Acid; SITE 6: note = alpha-methyl-2-fluoro-L-phenylalanine; SITE 10: note = 3-(4-Pyridyl)-L-alanine; SITE 11: note = alpha-methyl-L-serine; SITE 13: note = alpha-methyl-leucine; SITE 16: note = L-ornithine; SITE 17: note = Lysine is chemically mo) [Example 526]
Class: true (1)
--
Binder: YXQGTXTSDXXIXLDXKAQXEFIEXLIEGGPSSGAPPPSGGGE (non-natural residues, AEEA-γGlu-C18 diacid lysine acylation, C-terminal amide; synthetic construct; SITE 2: note = 2-Aminoisobutyric Acid; SITE 6: note = alpha-methyl-L-phenylalanine; SITE 10: note = 3-(4-Pyridyl)-L-alanine; SITE 11: note = alpha-methyl-L-serine; SITE 13: note = alpha-methyl-leucine; SITE 16: note = L-ornithine; SITE 17: note = Lysine is chemically modified th) [Example 1168]
Class: true (1)
--
Binder: YXQGTFTSDFSXXLDKKAQXAFIEYLLEGGPSSGAPPPGGSX (synthetic construct; SITE 2: note = 2-Aminoisobutyric Acid; SITE 12: note = L-ornithine; SITE 13: note = alpha-methyl-leucine; SITE 17: note = Lysine is chemically modified through conjugation of the epsilon-amino group of the Lysine side chain with (2-[2-(2-Amino-ethoxy)-ethoxy]-acetyl)-(gamma-Glu)) [Example 66]
Class: false (0)

Source listed as patent US20240270821A1.
